Measured values drawn from the supplement of paper PMC10126150 for this set.

- Tested on: ATP;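 note: ATP exposure 15 min at 22 °C before imaging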
- assay.text: switch fluorescence ratio, 500 uM ATP over buffer (Cy3 cluster intensity, sum of 5 cycles each) (fold (ratio)); higher = stronger signal-on switching upon ATP binding; sequences stand for … in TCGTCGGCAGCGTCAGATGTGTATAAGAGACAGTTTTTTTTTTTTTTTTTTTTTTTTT…TC
- test.settings: aptamer strand: ATP DNA aptamer (quencher-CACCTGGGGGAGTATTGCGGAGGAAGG + anchor), 100 nM annealed; ATP concentration: 500 uM
observable: switch fluorescence ratio
Hey, just send me the number, nothing else.

CCGTTTGTGC : 1.21
ATGTTCCTTT : 0.999
CTAATCGGTC : 0.874
CAGTGGGGCT : 1.02
GTCGTTGGTT : 0.985
CAAAGATGG : 0.947
CCAAGTGGGA : 0.985
TTTCGGAAGC : 1.01

Hello, please tell me recorded switch fluorescence ratio for this one: TTGCTTTTCG
0.974

Return value of switch fluorescence ratio for input AAATGTTTAC , no commentary.
1.03

Find the measured switch fluorescence ratio of AAAGTTTCAT and report it.
0.991

Determine its reported switch fluorescence ratio: TAGGTTCCTT
0.986

Fill in switch fluorescence ratio for record TGAGTACGTC
1.06

State its switch fluorescence ratio: CGGGGCTGGC
1.2
